Condition summary: 293.15 K; 5000 kPa; Liquid; Vibrating tube method
mass density values, listed per item
Expressed in kg/m3, but write only the number.

Here's what some known entries look like.
# Compound, Assay value
rows = [
    ("CCCO", 807.25),
    ("CCCCO", 813.04),
    ("CO", 795.92),
    ("CCO", 793.35),
    ("C=C(C)C(=O)OCCN(C)C [2-(dimethylamino)ethyl methylpropenoate]", 936.87),
]

Next item in the queue.
Item CCCCCO : provide mass density
818.83

====

Condition summary: 293.15 K; 30000 kPa; Liquid; Vibrating tube method
Reported endpoint: mass density (kg/m3)
Expressed in kg/m3, but write only the number.

# Compound, Unit abbreviation, Assay value
records = [
    ("CCCCCO", "kg/m3", 834.24),
]

Item C=C(C)C(=O)OCCN(C)C [2-(dimethylamino)ethyl methylpropenoate] : provide mass density
953.43

Item CCCO : provide mass density
824.15

Item CCCCO : provide mass density
828.99

Item CO : provide mass density
816.25

Item CCO : provide mass density
812.17
